Where do these numbers come from? They come from paper PMC9033141.

Assay: Determination of compound sulfonamide group pKa (UV-Vis spectra at different pH)
Format: physicochemical
Details: universal buffer; spectrophotometric, 37 °C; read-out: Sulfonamide pKa
property.measured: pKa
Give the figure by itself; no unit, no explanation.

Task: So what's the measured pKa for this one? COC(=O)CCN(c1ccc(S(N)(=O)=O)cc1)c1nc(C)cs1
Output: 10.1

Task: Record: NS(=O)(=O)c1ccc(N(CCC(=O)O)c2nc(-c3ccc(Cl)cc3)c(Cl)s2)cc1
Output: 10.2

Task: Record: CCOC(=O)c1sc(N(CCC(=O)O)c2ccc(S(N)(=O)=O)cc2)nc1C
Output: 10.1
